- Test system: MDA-MB-435
- experimentalDetails: NCI tumour cell line growth inhibition, 48 h
measurementKind: TGI

A selection of reference data follows.
{"compound": "OC1CC2CCC(C1)N2CCCN1c2ccccc2Sc2ccc(Cl)cc21 (stereo not given)", "studyTarget": "MDA-MB-435", "measurementKind": "TGI", "result": "3.31 µM"}
{"compound": "Cn1c(-c2ccc(C=O)o2)ccc1-c1ccc(C=O)o1", "studyTarget": "MDA-MB-435", "measurementKind": "TGI", "result": "> 100 µM"}
{"compound": "COc1ccc(C(=O)/C=C/c2ccc(OCCCCCCCCCCOc3ccc(/C=C/C(=O)c4ccc(OC)cc4)cc3)cc2)cc1", "studyTarget": "MDA-MB-435", "measurementKind": "TGI", "result": "> 100 µM"}
{"compound": "Cc1ccc(OP(=O)(Oc2ccc(C)cc2)N2C=Cc3ccccc3C2C#N)cc1 (stereo not given)", "studyTarget": "MDA-MB-435", "measurementKind": "TGI", "result": "> 100 µM"}

Let us examine a further case.
[Q] If you can, please state the reported TGI value of Cc1ccc(S(=O)(=O)ON2C(=O)c3cccc4cc([N+](=O)[O-])cc(c34)C2=O)cc1 .
[A] > 100 µM

----------
- Test system: NCI-H460 lung
- experimentalDetails: NCI tumour cell line growth inhibition, 48 h
Reported TGI values for the following molecules.
API: value field is a number in µM; no unit string.

[Q] If you can, please state the reported TGI value of Cc1nc(-c2ccccc2)cn2c1nc1ccccc12 .
[A] 37.1

[Q] // repeat for COc1cc(-n2ccnc2-c2ccc3ccccc3c2)cc(OC)c1OC and report
[A] 14.7

----------
- Tested on: UACC-257 melanoma
- experimentalDetails: NCI tumour cell line growth inhibition, 48 h
Reported TGI values for the following compounds.

{"compound": "Cc1ncn(-c2ccccc2O)c1C", "TGI": "> 100 µM"}

[Q] If you can, please state the reported TGI value of COc1ccc(/[N+]([O-])=C/c2ccc(OC(=S)S)c(OC)c2)cc1 .
[A] > 100 µM

[Q] // repeat for CCCCN(CC)C(=O)C(=O)Cc1nc2ccc(C(=O)c3ccccc3)cc2[nH]c1=O and report
[A] > 100 µM

[Q] // repeat for NC(=O)c1cc(N2CC2)c([N+](=O)[O-])cc1[N+](=O)[O-] and report
[A] > 200 µM

[Q] // repeat for O=C1c2ccccc2C(=O)N1CCc1ncc(-c2ccccc2)[nH]1 and report
[A] > 100 µM

[Q] // repeat for Cc1ccc(S(=O)(=O)ON2C(=O)c3cccc4cc([N+](=O)[O-])cc(c34)C2=O)cc1 and report
[A] > 100 µM

[Q] // repeat for COC(=O)C1=C(C)NC(=O)N2[C@@H](CCOCc3ccccc3)CC[C@@H]12 and report
[A] > 50 µM

[Q] // repeat for Cc1ccc2nc3ccccc3c(C3C4C(=O)N(c5ccc(F)cc5)C(=O)C4ON3C(C(N)=O)c3ccccc3)c2c1 (stereo unspecified) and report
[A] > 100 µM

[Q] // repeat for COc1ccc2[nH]cc(CCNC(=O)[C@H](Cc3ccc(O)cc3)NC(=O)[C@@H](NCC(F)(F)F)C(C)C)c2c1 and report
[A] > 100 µM

[Q] // repeat for CC(C)C1CSC2N1C(=O)C2(OCc1ccccc1)C1CC1 (stereo unspecified) and report
[A] > 100 µM

[Q] // repeat for C[C@H](Nc1nc(N)c(N=O)c(=O)n1C)C(=O)O and report
[A] > 10 µM

----------
- Test system: HCC-2998 colon
- experimentalDetails: NCI tumour cell line growth inhibition, 48 h
Where a SMILES comes first, the peptide text is derived from it. [ ]: non-standard residue; d: D form. pGlu = O=C1CC[CH](C(=O)O)N1; Thz = O=C(O)[CH]1CSCN1
measurementKind: TGI

A selection of reference data follows.
{"molecule": "Cc1ccc2c(C(C[N+](=O)[O-])c3ccccc3)c(-c3ccccc3)[nH]c2c1 (configuration not stated)", "TGI": "> 95 µM"}
{"molecule": "CCOP(=O)(OCC)Oc1c(OC)c2[nH]c(C(=O)OC)cc2c2c(C(=O)O)c[nH]c12", "TGI": "> 100 µM"}
{"molecule": "O=S1(=O)c2ccccc2N(O)C2=NCCN21", "TGI": "> 100 µM"}
{"molecule": "CSc1cc([C@@H]2C[C@H]2c2ccc(Cl)cc2)on1", "TGI": "15 µM"}
{"molecule": "CC(=O)O.CN1[CH-]N(Cc2ccc(C#N)cc2)c2ccccc21.[Ag+]", "TGI": "> 100 µM"}
{"molecule": "C#CC1(O)CCC2[C@@H]3CCc4cc(Oc5nc(F)nc(-c6c(C)c(C(=O)OCC)n7ccccc67)n5)ccc4C3CC[C@@]21C (some centres not stated)", "TGI": "> 100 µM"}

[Q] If you can, please state the reported TGI value of Cc1c(Cn2c(C)nc3c(C(=O)O)cc(N4CCOCC4)cc32)cccc1C(F)(F)F .
[A] > 100 µM

[Q] // repeat for O=[N+]([O-])c1ccc(-c2csc(N=Nc3c(O)[nH]c4ccccc34)n2)cc1 and report
[A] 50.5 µM

[Q] // repeat for Cc1cc(N(CCC#N)CCC#N)ccc1/C(N=Nc1ccc([N+](=O)[O-])cc1)=N\NC(=O)c1cc(Cl)ccc1O and report
[A] 46.2 µM

[Q] // repeat for O=C(O)c1nc2cc(Cl)ccc2[nH]c1=O and report
[A] > 100 µM

[Q] // repeat for COc1cc(-c2nn(-c3cccc(NC(=O)Nc4ccc(Cl)c(C(F)(F)F)c4)c3)cc2-c2ccncc2)ccc1Cl and report
[A] 7.3 µM

[Q] // repeat for FC1(F)ON2CCc3ccccc3C2[C@H]1c1ccccc1 (some centres not stated) and report
[A] > 100 µM

[Q] // repeat for COC(=O)c1cc2c(c(C(=O)OC)c1)CCC2 and report
[A] > 100 µM

[Q] // repeat for CC1(C)Oc2ccc3ccc(=O)oc3c2C(O)C1O (configuration not stated) and report
[A] > 100 µM

[Q] // repeat for Cc1ccc(S(=O)(=O)ON2C(=O)c3cccc4cc([N+](=O)[O-])cc(c34)C2=O)cc1 and report
[A] 58.9 µM

[Q] // repeat for O=C1CCC(C(=O)N2CSCC2C(=O)O)N1 (configuration not stated) ([pGlu]-[Thz]-OH; configuration not given here) and report
[A] > 100 µM

[Q] // repeat for CC(Oc1ccc2c(-c3ccc(Cl)cc3)cc(=O)oc2c1)C(=O)O (configuration not stated) and report
[A] > 100 µM

----------
- Tested on: UO-31 renal
- experimentalDetails: NCI tumour cell line growth inhibition, 48 h
measurementKind: TGI

{"compound": "COc1ccc(/C=C2\\N=C(N3CCCC(CO)C3)NC2=O)cc1 (stereo not given)", "result": "> 100 µM"}
{"compound": "Cc1c(Cn2c(C)nc3c(C(=O)O)cc(N4CCOCC4)cc32)cccc1C(F)(F)F", "result": "> 67.6 µM"}
{"compound": "C=C1C(C(=O)OC)[C@H]1C(=O)OC (stereo not given in full)", "result": "> 100 µM"}
{"compound": "[N-]=[N+]=NCN1C(=O)C2C3C=CC(C2C1=O)C1C2C(=O)N(CN=[N+]=[N-])C(=O)C2C31 (stereo not given)", "result": "> 100 µM"}
{"compound": "Cc1cccc(-c2nnc3s/c(=C\\c4ccc(N(C)C)cc4)c(=O)n23)c1", "result": "> 100 µM"}

[Q] If you can, please state the reported TGI value of CN(C)Cc1cc(Cl)c(O)c(CN(C)C)c1 .
[A] > 100 µM

[Q] // repeat for O=S(=O)(N=C1C(Cl)=C(Cl)C(=NS(=O)(=O)c2ccccc2)C(Cl)=C1Cl)c1ccccc1 and report
[A] 48.9 µM

----------
- Test system: HOP-92 NSCLC
- experimentalDetails: NCI tumour cell line growth inhibition, 48 h
Reported TGI values for the following compounds.

A selection of reference data follows.
{"compound": "COc1ccc(C(=O)C2CCC(C(=O)O)C2)cc1 (stereo not drawn)", "studyTarget": "HOP-92 NSCLC", "TGI": "> 100 µM"}
{"compound": "Cc1c(NC(=S)Nc2ccc([N+](=O)[O-])cc2)c(=O)n(-c2ccccc2)n1C", "studyTarget": "HOP-92 NSCLC", "TGI": "> 100 µM"}
{"compound": "O=c1[nH]c(Nc2ccc(Br)c(C(F)(F)F)c2)nc2nc[nH]c12", "studyTarget": "HOP-92 NSCLC", "TGI": "> 100 µM"}
{"compound": "COC(=O)C1=C(C)NC(=O)N2[C@@H](CCOCc3ccccc3)CC[C@@H]12", "studyTarget": "HOP-92 NSCLC", "TGI": "> 50 µM"}
{"compound": "NC(=O)CC1OC(=O)Cc2cc3c(c(O)c21)C(=O)c1c(O)cccc1C3=O (stereo not drawn)", "studyTarget": "HOP-92 NSCLC", "TGI": "> 100 µM"}
{"compound": "COc1ccc(C2SCC(=O)N2c2ccc(-n3c(-c4ccccc4)nc4ccccc4c3=O)cc2)cc1 (stereo not drawn)", "studyTarget": "HOP-92 NSCLC", "TGI": "> 100 µM"}
{"compound": "CC1(C)Oc2ccc3ccc(=O)oc3c2C(O)C1O (stereo not drawn)", "studyTarget": "HOP-92 NSCLC", "TGI": "> 100 µM"}
{"compound": "Cc1ccc(OP(=O)(Oc2ccc(C)cc2)N2C=Cc3ccccc3C2C#N)cc1 (stereo not drawn)", "studyTarget": "HOP-92 NSCLC", "TGI": "> 100 µM"}

[Q] If you can, please state the reported TGI value of Cc1ncn(-c2ccccc2O)c1C .
[A] > 100 µM

[Q] // repeat for NCC(=O)Nc1ccccc1 and report
[A] > 100 µM

[Q] // repeat for CC(C)(C)C(=O)N1C(C(=O)O)Cc2ccccc2[C@@H]1Cc1ccccc1 (stereo partly drawn) and report
[A] > 100 µM

[Q] // repeat for CCOC(=O)c1[nH]c2cc(Cl)ccc2c1[C@@H](C(=O)NC(C)(C)C)N(CC)C(=O)CCCCC#Cc1cccc2c1CN(C1CCC(=O)NC1=O)C2=O (stereo partly drawn) and report
[A] < 0.0238 µM

[Q] // repeat for CSC(=O)C[C@@]12O[C@@H]([C@@H](C)C3CCC4[C@@H]5C(O)CC6=CC(=O)C=C[C@]6(C)C5CC[C@@]43C)C[C@](C)(O1)C(C)(C)O2 (stereo partly drawn) and report
[A] 23 µM

[Q] // repeat for O=C(O)c1nc2cc(Cl)ccc2[nH]c1=O and report
[A] > 100 µM

[Q] // repeat for CSc1ccc(C2=NN(C(C)=O)C(c3ccc(-c4cc(Cl)c(Cl)cc4Cl)o3)C2)cc1 (stereo not drawn) and report
[A] 23.6 µM

[Q] // repeat for O=S(=O)(N=C1C(Cl)=C(Cl)C(=NS(=O)(=O)c2ccccc2)C(Cl)=C1Cl)c1ccccc1 and report
[A] > 100 µM

[Q] // repeat for COC(=O)C(Cc1c[nH]c2ccccc12)NC(=O)C(Cc1cnc[nH]1)NC(=O)C1CCC(=O)N1C(=O)OCc1ccccc1 (stereo not drawn) and report
[A] > 100 µM

[Q] // repeat for CC(=O)OCc1c(O)c2c([nH]c1=O)CCc1ccccc1-2 and report
[A] 182 µM

[Q] // repeat for COc1ccc(Nc2nc(NCCNc3ccnc4cc(Cl)ccc34)nc(N3CCOCC3)n2)cc1 and report
[A] 13 µM

[Q] // repeat for COc1ccccc1C#Cc1ccccc1C#Cc1ccc(OCCCCCCOc2ccccc2C#Cc2ccccc2C#Cc2ccccc2OC)cc1 and report
[A] > 100 µM

[Q] // repeat for CCOC(=O)C(NC(=O)c1cccc(Cl)c1)(Nc1ccc(S(=O)(=O)Nc2cc(C)on2)cc1)C(F)(F)F (stereo not drawn) and report
[A] > 100 µM

[Q] // repeat for COc1cc2nc(Nc3cccc(Cl)c3)nc(N)c2cc1OC and report
[A] 14.6 µM

[Q] // repeat for COC(=O)Nc1nc2ccc(NS(=O)(=O)c3cccs3)cc2[nH]1 and report
[A] 70.4 µM

[Q] // repeat for CCCc1nn(C)c2c(=O)[nH]c(-c3cc(S(=O)(=O)N4CCN(C)CC4)ccc3OCC)nc12 and report
[A] 97.5 µM

[Q] // repeat for COC(=O)c1cc2c(c(C(=O)OC)c1)CCC2 and report
[A] > 100 µM

[Q] // repeat for O=C1C2CCN(CC2)C1CN1CCOCC1 (stereo not drawn) and report
[A] 3.47 µM

[Q] // repeat for CCOC(=O)CNC(=O)C(CCC(=O)N(C)O)NC(=O)CCC(N)C(=O)O (stereo not drawn) and report
[A] > 100 µM

[Q] // repeat for Cc1ccc2nc3ccccc3c(C3C4C(=O)N(c5ccc(F)cc5)C(=O)C4ON3C(C(N)=O)c3ccccc3)c2c1 (stereo not drawn) and report
[A] > 100 µM
